- test target: dsDNA
- protocol: Binding affinity to FITC-labelled dsDNA (unknown origin) assessed as dissociation constant incubated for 10 mins by fluorescence polarization assay
Numbered stars: 1 amine (or outer) side, 2 acyl side, 3 side chain; on linkers, the order of the positions; unused ones are H or OH. Bridge positions count the residues as written; N and C are the ends. Square brackets hold non-standard residues; d marks the D form. Peptide text beside a SMILES is read from it. X1 = CC(C)[C@@H](CN[*:1])C(=O)[*:2]; S5 = C=CCCC[C@](C)(N)C(=O)O; Nle = CCCC[C@H](N)C(=O)O; βAla = NCCC(=O)O
Kindly apply the following: t if Kd is less than 0.4 µM, f in every other case.

compound: CCCC[C@H](NC(=O)[C@H](CCC(=O)O)NC(=O)[C@H](CCCNC(=N)N)NC(=O)[C@H](Cc1ccc(O)cc1)NC(=O)[C@H](CCCCN)NC(=O)[C@H](C)NC(=O)[C@]1(C)CCC/C=C\CCC[C@](C)(NC(=O)[C@@H](NC(=O)[C@H](CCCNC(=N)N)NC(=O)[C@H](Cc2ccccc2)NC(=O)CCNC(C)=O)C(C)C)C(=O)N[C@@H](CCCNC(=N)N)C(=O)N[C@@H](CCCNC(=N)N)C(=O)N[C@@H]([C@@H](C)O)C(=O)N1)C(=O)N[C@@H](CC(C)C)C(N)=O (Ac-[βAla]FRV[S5]RRT[S5]AKYRE[Nle]L-NH2; staple (Z) 5-9)
assigned class: t

compound: CCCC[C@H](NC(=O)[C@H](CCC(=O)O)NC(=O)[C@H](CCCNC(=N)N)NC(=O)[C@H](Cc1ccc(O)cc1)NC(=O)[C@H](CCCCN)NC(=O)[C@H](C)NC(=O)[C@]1(C)CCC/C=C\CCC[C@](C)(NC(=O)[C@@H](NC(=O)[C@H](CCCCN)NC(=O)[C@H](Cc2ccccc2)NC(=O)CCNC(C)=O)C(C)C)C(=O)N[C@@H](CCCNC(=N)N)C(=O)N[C@@H](CCCNC(=N)N)C(=O)N[C@@H]([C@@H](C)O)C(=O)N1)C(=O)N[C@@H](CC(C)C)C(N)=O (Ac-[βAla]FKV[S5]RRT[S5]AKYRE[Nle]L-NH2; staple (Z) 5-9)
assigned class: f

compound: CCCC[C@H](NC(=O)[C@H](CCC(=O)O)NC(=O)[C@H](CCCNC(=N)N)NC(=O)[C@H](Cc1ccc(O)cc1)NC(=O)[C@H](CCCCN)NC(=O)CNC(=O)[C@]1(C)CCC/C=C\CCC[C@](C)(NC(=O)[C@@H](NC(=O)[C@H](CCCCN)NC(=O)[C@H](Cc2ccccc2)NC(=O)CCNC(C)=O)C(C)C)C(=O)N[C@@H](CCCNC(=N)N)C(=O)N[C@@H](CCCNC(=N)N)C(=O)N[C@@H]([C@@H](C)O)C(=O)N1)C(=O)N[C@@H](CC(C)C)C(N)=O (Ac-[βAla]FKV[S5]RRT[S5]GKYRE[Nle]L-NH2; staple (Z) 5-9)
assigned class: t

compound: CCCC[C@H](NC(=O)[C@H](CCC(=O)O)NC(=O)[C@H](CCCNC(=N)N)NC(=O)[C@H](Cc1ccc(O)cc1)NC(=O)[C@H](CCCCN)NC(=O)[C@H](C)NC(=O)[C@]1(C)CCC/C=C\CCC[C@](C)(NC(=O)[C@H](CNC(=O)[C@H](CCCCN)NC(=O)[C@H](Cc2ccccc2)NC(=O)CCNC(C)=O)C(C)C)C(=O)N[C@@H](CCCNC(=N)N)C(=O)N[C@@H](CCCNC(=N)N)C(=O)N[C@@H]([C@@H](C)O)C(=O)N1)C(N)=O (Ac-[βAla]FK[X1][S5]RRT[S5]AKYRE[Nle]-NH2; staple (Z) 5-9)
assigned class: t

compound: CCCC[C@H](NC(=O)[C@H](CCC(=O)O)NC(=O)[C@H](CCCNC(=N)N)NC(=O)[C@]1(C)CCC/C=C\CCC[C@](C)(NC(=O)[C@H](CCCNC(=N)N)NC(=O)[C@H](CCCNC(=N)N)NC(=O)[C@H](C)NC(=O)[C@@H](NC(=O)[C@H](CCCCN)NC(=O)[C@H](Cc2ccccc2)NC(=O)CCNC(C)=O)C(C)C)C(=O)N[C@@H](C(C)C)C(=O)N[C@@H](C)C(=O)N[C@@H](CCCCN)C(=O)N1)C(=O)N[C@@H](CC(C)C)C(N)=O (Ac-[βAla]FKVARR[S5]VAK[S5]RE[Nle]L-NH2; staple (Z) 8-12)
assigned class: t

compound: CCCC[C@H](NC(=O)[C@H](CCC(=O)O)NC(=O)[C@H](CCCNC(=N)N)NC(=O)[C@H](Cc1ccc(O)cc1)NC(=O)[C@H](CCCCN)NC(=O)[C@H](C)NC(=O)[C@]1(C)CCC/C=C\CCC[C@](C)(NC(=O)[C@@H](NC(=O)[C@H](CCCCN)NC(=O)[C@H](Cc2ccccc2)NC(=O)CCNC(C)=O)C(C)C)C(=O)N[C@@H](CCCCN)C(=O)N[C@@H](CCCNC(=N)N)C(=O)N[C@@H]([C@@H](C)O)C(=O)N1)C(=O)N[C@@H](CC(C)C)C(N)=O (Ac-[βAla]FKV[S5]KRT[S5]AKYRE[Nle]L-NH2; staple (Z) 5-9)
assigned class: f

compound: CCCC[C@H](NC(=O)[C@H](CCC(=O)O)NC(=O)[C@H](CCCNC(=N)N)NC(=O)[C@H](Cc1ccc(O)cc1)NC(=O)[C@H](CCCCN)NC(=O)[C@H](C)NC(=O)[C@]1(C)CCC/C=C\CCC[C@](C)(NC(=O)[C@@H](NC(=O)[C@H](CCCCN)NC(=O)[C@H](Cc2ccccc2)NC(=O)CCNC(C)=O)C(C)C)C(=O)N[C@@H](CCCNC(=N)N)C(=O)N[C@@H](CCCCN)C(=O)N[C@@H]([C@@H](C)O)C(=O)N1)C(=O)N[C@@H](CC(C)C)C(N)=O (Ac-[βAla]FKV[S5]RKT[S5]AKYRE[Nle]L-NH2; staple (Z) 5-9)
assigned class: f
